Molecular target: KRAS G12D (Homo sapiens (Human), UniProt P01116+P62937, G12D)
Sequence (P01116 other isoform, or with tags, fused parts or gaps G12D, one chain of several): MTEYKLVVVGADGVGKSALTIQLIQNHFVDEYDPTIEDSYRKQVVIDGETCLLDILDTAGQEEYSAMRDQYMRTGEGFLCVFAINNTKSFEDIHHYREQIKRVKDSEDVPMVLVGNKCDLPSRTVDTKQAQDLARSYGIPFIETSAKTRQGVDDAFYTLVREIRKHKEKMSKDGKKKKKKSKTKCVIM
Test: Ras-Raf disruption/FRET/MOA assay (BRAF RBD, Cyclophilin A)
Format: biochemical
Details: read-out: KRAS G12D FRET IC50
Recorded endpoint: IC50

Smi: CCn1c(-c2cccnc2[C@H](C)OC)c2c3cc(ccc31)-c1csc(n1)C[C@H](NC(=O)[C@H](C(C)C)N(C)C(=O)N1CC(C3COC3)C1)C(=O)N1CCC[C@H](N1)C(=O)OCC(C)(C)C2
IC50: 100 to 1000 nM

Smi: CCn1c(-c2cccnc2[C@H](C)OC)c2c3cc(ccc31)-c1csc(n1)C[C@H](NC(=O)[C@H](C(C)C)N(C)C(=O)N1CCCC13CN(C)C3)C(=O)N1CCC[C@H](N1)C(=O)OCC(C)(C)C2
IC50: 100 to 1000 nM

Smi: CCn1c(-c2cccnc2[C@H](C)OC)c2c3cc(ccc31)-c1cc(O)cc(c1)C[C@H](NC(=O)[C@H](C(C)C)N(C)C(=O)[C@@]1(F)CCN(C(=O)OC)C1)C(=O)N1CCC[C@H](N1)C(=O)OCC(C)(C)C2
IC50: 100 to 1000 nM

Query :: Find the measured IC50 of CCn1c(-c2cccnc2[C@H](C)OC)c2c3cc(ccc31)-c1csc(n1)C[C@H](NC(=O)[C@H](C(C)C)N(C)C(=O)[C@H]1CCN(C(C)=O)C1)C(=O)N1CCC[C@H](N1)C(=O)OCC(C)(C)C2 and report it.
Result :: > 10000 nM

Query :: Find the measured IC50 of CCn1c(-c2cnccc2COC)c2c3cc(ccc31)-c1cc(O)cc(c1)C[C@H](NC(=O)[C@H](C(C)C)N(C)C(=O)[C@H]1CCCN1C)C(=O)N1CCC[C@H](N1)C(=O)OCC(C)(C)C2 and report it.
Result :: 100 to 1000 nM

----------
Catalogue of IC50 values
Biological target: NRAS Q61R (Homo sapiens (Human), UniProt P01111+P62937, Q61R)
Sequence (P01111 whole entry Q61R): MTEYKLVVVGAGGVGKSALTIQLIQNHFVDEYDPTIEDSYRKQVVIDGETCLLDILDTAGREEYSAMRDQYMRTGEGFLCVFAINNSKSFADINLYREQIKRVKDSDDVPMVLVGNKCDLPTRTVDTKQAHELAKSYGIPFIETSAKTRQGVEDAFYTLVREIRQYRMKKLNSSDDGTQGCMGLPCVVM
Sequence (P62937 whole entry): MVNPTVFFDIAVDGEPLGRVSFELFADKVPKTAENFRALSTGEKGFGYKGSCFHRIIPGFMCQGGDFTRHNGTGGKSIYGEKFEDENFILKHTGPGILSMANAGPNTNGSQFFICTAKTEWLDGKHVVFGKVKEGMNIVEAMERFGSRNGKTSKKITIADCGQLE
Experiment: Ras-Raf disruption/FRET/MOA assay (BRAF RBD, Cyclophilin A)
Format: biochemical

Smi: CCn1c(-c2cccnc2[C@H](C)OC)c2c3cc(ccc31)-c1csc(n1)C[C@H](NC(=O)[C@H](C(C)C)N(C)C(=O)N(C)[C@H]1CCCN(C)C1)C(=O)N1CCC[C@H](N1)C(=O)OCC(C)(C)C2
IC50: 1 to 10 µM

Continue with the compound presented below.
Query :: Find the measured IC50 of CCn1c(-c2cccnc2[C@H](C)OC)c2c3cc(ccc31)-c1cc(CF)cc(c1)C[C@H](NC(=O)[C@H](C(C)C)N(C)C(=O)[C@@H]1OCC[C@@H]1c1ccccc1)C(=O)N1CCC[C@H](N1)C(=O)OCC(C)(C)C2 and report it.
Result :: 0.1 to 1 µM

----------
Catalogue of IC50 values
Biological target: KRAS WT (Homo sapiens (Human), UniProt P01116+P62937)
Sequence (P01116 other isoform, or with tags, fused parts or gaps): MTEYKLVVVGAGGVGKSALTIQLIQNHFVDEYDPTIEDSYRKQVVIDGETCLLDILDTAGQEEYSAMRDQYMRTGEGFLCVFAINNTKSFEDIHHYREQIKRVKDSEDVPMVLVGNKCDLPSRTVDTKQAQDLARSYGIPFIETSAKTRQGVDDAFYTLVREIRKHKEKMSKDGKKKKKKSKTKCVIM
Sequence (P62937 whole entry): as the sequence (P62937 whole entry) above
Experiment: Ras-Raf disruption/FRET/MOA assay, KRAS WT
Assay type: biochemical
Settings: read-out: KRAS WT FRET IC50

Compound: CCn1c(-c2cccnc2COC)c2c3cc(ccc31)-c1cc(O)cc(c1)C[C@H](NC(=O)[C@H](C(C)C)N(C)C(=O)CCNC1=NCCO1)C(=O)N1CCC[C@H](N1)C(=O)OCC(C)(C)C2
Recorded endpoint: IC50
Meas value: 1000 to 10000 nM
--
Compound: CCn1c(-c2cnccc2COC)c2c3cc(ccc31)-c1cccc(c1)C[C@H](NC(=O)[C@H](C(C)C)N(C)C(=O)CCN=C=Nc1ccccc1COC)C(=O)N1CCC[C@H](N1)C(=O)OCC(C)(C)C2
Recorded endpoint: IC50
Meas value: 1000 to 10000 nM
--
Compound: CCn1c(-c2cnccc2COC)c2c3cc(ccc31)-c1cc(O)cc(c1)C[C@H](NC(=O)[C@H](C(C)C)N(C)C(=O)C1CCN(C(=O)[C@@H]3CN3)CC1)C(=O)N1CCC[C@H](N1)C(=O)OCC(C)(C)C2
Recorded endpoint: IC50
Meas value: 100 to 1000 nM
--
Compound: CCn1c(-c2cnccc2COC)c2c3cc(ccc31)-c1cc(O)cc(c1)C[C@H](NC(=O)[C@H](C(C)C)N(C)C(=O)CCN(C)C(=O)[C@H]1CN1)C(=O)N1CCC[C@H](N1)C(=O)OCC(C)(C)C2 (single isomer, unassigned)
Recorded endpoint: IC50
Meas value: 100 to 1000 nM
--
Compound: CCn1c(-c2cnccc2COC)c2c3cc(ccc31)-c1cccc(c1)C[C@H](NC(=O)[C@H](C(C)C)N(C)C(=O)CCN=C=Nc1ccc(N(C)C)cc1)C(=O)N1CCC[C@H](N1)C(=O)OCC(C)(C)C2
Recorded endpoint: IC50
Meas value: 1000 to 10000 nM
--
Compound: CCn1c(-c2cccnc2COC)c2c3cc(ccc31)-c1cc(O)cc(c1)C[C@H](NC(=O)[C@H](C(C)C)N(C)C(=O)CNC1=NCCO1)C(=O)N1CCC[C@H](N1)C(=O)OCC(C)(C)C2
Recorded endpoint: IC50
Meas value: > 10000 nM

Continue with the compound presented below.
Query :: Find the measured IC50 of CCn1c(-c2cnccc2COC)c2c3cc(ccc31)-c1cccc(c1)C[C@H](NC(=O)[C@H](C(C)C)N(C)C(=O)CCN=C=NCc1c(OC)cccc1OC)C(=O)N1CCC[C@H](N1)C(=O)OCC(C)(C)C2 and report it.
Result :: > 10000 nM
